Let's look at some binders and their measured kon.
tgt: T1, antigen (11A12) containing the ED-A domain of human fibronectin (human, UniProt P02751 1629-1905)
T1 construct: Immobilised on a CM5 chip by amine coupling
experimentDescription: SPR (BIAcore), monomeric scFv over 11A12 immobilised on CM5 chip
// units = M⁻¹ s⁻¹; emit number, no label

binder	valueKind	endpointValue
anti-ED-A antibody C5 (scFv, scFv; Supernatant in BIAcore analysis 1, purified monomeric fraction in BIAcore analysis 2) scFv: EVQLVESGGGLVQPGGSLRLSCAASGFTFSPITMSWVRQAPGKGLEWVSAISGSGGSTYYADSVKGRFTISRDNSKNTLYLQMNSLRAEDTAVYYCAKSTHLYLFDYWGQGTLVTVSSGGGGSGGGGSGGGGSGGGGSEIVLTQSPGTLSLSPGEKATLSCRASQSVSLHFLAWYQQKPGQAPRLLIYGASSRATGIPDRFSGSGSGTDFTLTISRLEPEDFAVYYCQQMRGRPPTFGQGTKVEIKAAAEQKLISEEDLNGAA	kon	304000
anti-ED-A antibody F8 (scFv, scFv format, not the F8 diabody; Supernatant in BIAcore analysis 1, purified monomeric fraction in BIAcore analysis 2; also called anti-ED-A scFv F8) scFv: EVQLVESGGGLVQPGGSLRLSCAASGFTFSLFTMSWVRQAPGKGLEWVSAISGSGGSTYYADSVKGRFTISRDNSKNTLYLQMNSLRAEDTAVYYCAKSTHLYLFDYWGQGTLVTVSSGGGGSGGGGSGGGGSGGGGSEIVLTQSPGTLSLSPGEKATLSCRASQSVSMPFLAWYQQKPGQAPRLLIYGASSRATGIPDRFSGSGSGTDFTLTISRLEPEDFAVYYCQQMRGRPPTFGQGTKVEIKAAAEQKLISEEDLNGAA	kon	465000
anti-ED-A antibody B7 (scFv, scFv; Supernatant in BIAcore analysis 1, purified monomeric fraction in BIAcore analysis 2) scFv: EVQLVESGGGLVQPGGSLRLSCAASGFTFSHFDMSWVRQAPGKGLEWVSAISGSGGSTYYADSVKGRFTISRDNSKNTLYLQMNSLRAEDTAVYYCAKSTHLYLFDYWGQGTLVTVSSGGGGSGGGGSGGGGSGGGGSEIVLTQSPGTLSLSPGEKATLSCRASQSVSLAFLAWYQQKPGQAPRLLIYGASSRATGIPDRFSGSGSGTDFTLTISRLEPEDFAVYYCQQMRGRPPTFGQGTKVEIKAAAEQKLISEEDLNGAA	kon	267000
anti-ED-A antibody B2 (scFv, scFv; Supernatant in BIAcore analysis 1, purified monomeric fraction in BIAcore analysis 2) scFv: EVQLVESGGGLVQPGGSLRLSCAASGFTFSAAKMSWVRQAPGKGLEWVSAISGSGGSTYYADSVKGRFTISRDNSKNTLYLQMNSLRAEDTAVYYCAKSTHLYLFDYWGQGTLVTVSSGGGGSGGGGSGGGGSGGGGSEIVLTQSPGTLSLSPGEKATLSCRASQSVSVAFLAWYQQKPGQAPRLLIYGASSRATGIPDRFSGSGSGTDFTLTISRLEPEDFAVYYCQQMRGRPPTFGQGTKVEIKAAAEQKLISEEDLNGAA	kon	380000
anti-ED-A antibody G9 (scFv, scFv; Supernatant in BIAcore analysis 1, purified monomeric fraction in BIAcore analysis 2) scFv: EVQLVESGGGLVQPGGSLRLSCAASGFTFSHMQMSWVRQAPGKGLEWVSAISGSGGSTYYADSVKGRFTISRDNSKNTLYLQMNSLRAEDTAVYYCAKSTHLYLFDYWGQGTLVTVSSGGGGSGGGGSGGGGSGGGGSEIVLTQSPGTLSLSPGEKATLSCRASQSVSTAFLAWYQQKPGQAPRLLIYGASSRATGIPDRFSGSGSGTDFTLTISRLEPEDFAVYYCQQMRGRPPTFGQGTKVEIKAAAEQKLISEEDLNGAA	kon	360000

Exercise: What does the record list as kon for anti-ED-A antibody C8 (scFv, scFv; Supernatant in BIAcore analysis 1, purified monomeric fraction in BIAcore analysis 2) scFv: EVQLVESGGGLVQPGGSLRLSCAASGFTFSLQTMSWVRQAPGKGLEWVSAISGSGGSTYYADSVKGRFTISRDNSKNTLYLQMNSLRAEDTAVYYCAKSTHLYLFDYWGQGTLVTVSSGGGGSGGGGSGGGGSGGGGSEIVLTQSPGTLSLSPGEKATLSCRASQSVSLPFLAWYQQKPGQAPRLLIYGASSRATGIPDRFSGSGSGTDFTLTISRLEPEDFAVYYCQQMRGRPPTFGQGTKVEIKAAAEQKLISEEDLNGAA ?
Key: 380000

Exercise: Same question for anti-ED-A antibody D5 (scFv, scFv; Supernatant in BIAcore analysis 1, purified monomeric fraction in BIAcore analysis 2) scFv: EVQLVESGGGLVQPGGSLRLSCAASGFTFSVMKMSWVRQAPGKGLEWVSAISGSGGSTYYADSVKGRFTISRDNSKNTLYLQMNSLRAEDTAVYYCAKSTHLYLFDYWGQGTLVTVSSGGGGSGGGGSGGGGSGGGGSEIVLTQSPGTLSLSPGEKATLSCRASQSVSNAFLAWYQQKPGQAPRLLIYGASSRATGIPDRFSGSGSGTDFTLTISRLEPEDFAVYYCQQMRGRPPTFGQGTKVEIKAAAEQKLISEEDLNGAA please.
Key: 453000
